Parameter 'readout' = IC50; parameter 'system' = Oxysterols receptor LXR-alpha (Homo sapiens).
The answer is to be given in nM; state only the numeric part.

Please look at CN(Cc1ccccc1)c1ccc(C(O)(C(F)(F)F)C(F)(F)F)cc1 and tell me its recorded IC50 on Oxysterols receptor LXR-alpha (Homo sapiens).
310

Please report the measured IC50 for CCCCN(Cc1cc(Cl)cc(Cl)c1O)c1ccc(C(O)(C(F)(F)F)C(F)(F)F)cc1 tested on Oxysterols receptor LXR-alpha (Homo sapiens).
890

* * *

TARGET: Oxysterols receptor LXR-alpha (Homo sapiens)
Sequence (Q13133 whole entry): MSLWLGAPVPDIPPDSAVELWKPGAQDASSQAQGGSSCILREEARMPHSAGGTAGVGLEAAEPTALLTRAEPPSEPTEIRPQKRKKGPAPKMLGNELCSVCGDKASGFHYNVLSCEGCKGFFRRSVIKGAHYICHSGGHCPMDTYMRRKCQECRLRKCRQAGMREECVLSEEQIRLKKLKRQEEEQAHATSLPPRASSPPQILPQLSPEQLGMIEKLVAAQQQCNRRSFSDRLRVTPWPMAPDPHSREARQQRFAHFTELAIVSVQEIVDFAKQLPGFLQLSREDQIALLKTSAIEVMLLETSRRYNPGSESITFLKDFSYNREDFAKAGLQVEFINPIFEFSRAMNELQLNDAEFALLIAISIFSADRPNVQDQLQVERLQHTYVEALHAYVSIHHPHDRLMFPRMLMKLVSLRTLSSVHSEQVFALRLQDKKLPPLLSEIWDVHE
TEST: Activation of LXRalpha by GAL4 reporter gene assay
MEASURED_METRIC: EC50 (µM)
Give the number; µM is assumed, so skip it.

Please supply the value of reported EC50 for the item CCCCN(Cc1cc(Cl)c(O)c(Cl)c1)c1ccc(C(O)(C(F)(F)F)C(F)(F)F)cc1
3
